Quick reference for growth inhibition among some compounds
Test: NCI Yeast Anticancer Drug Screen. Data for the mec2-1 strain (AID 157)
Conditions: S. cerevisiae mec2-1 strain, at 50.0 µM (retest, dose inferred, filed as 5.0), stronger effect = higher value
Method: Growth inhibition of yeast strains with defined genetic alterations is measured as a screen for potential anti-cancer activity. Selected strains with alterations in DNA damage repair or cell cycle control were exposed to compounds and growth inhibition was measured relative to vehicle treated controls. The strain used in this assay is mec2-1
About 79,000 compounds went through this panel and 15% of them were active in at least one assay; those are over-represented in the sample as a whole.
value.kind: growth inhibition (%)

>>> reading("OCCN=C1c2ccccc2C2C(c3ccccc31)C1c3ccccc3C(=NCCO)c3ccccc3C21 (configuration not stated)")
-8
>>> reading("CCOC(=O)C1C(c2cccc(OC)c2O)c2cc3c(cc2OC1(C)N1CCCC1)OCO3 (configuration not stated)")
15
>>> reading("COc1ccccc1C(=O)c1ccc2ccccc2c1")
85
>>> reading("COc1cc2c(c(C)c1O)[C@H]1COc3ccccc3[C@H]1O2")
-9
>>> reading("CC1=C(C2CO2)C(=O)C(C)=C(C2CO2)C1=O (configuration not stated)")
100
>>> reading("CN(NC1OC(=O)c2ccccc21)c1ccc(C(F)(F)F)cc1[N+](=O)[O-] (configuration not stated)")
36
>>> reading("COC(=O)CNC(=O)C(F)(F)F")
-49
>>> reading("O=c1[nH]c(C(F)(F)F)c(F)c(=O)[nH]1")
1
>>> reading("NNc1ccc2ccccc2n1")
93
>>> reading("CCCCCCCCCCCCCCCCCC[N+](C)(C)Cc1ccc(C[N+](C)(C)CCCCCCCCCCCCCCCCCC)cc1")
7
>>> reading("Cc1ccc2c(c1)C(O)(c1ccccc1)CCS2 (configuration not stated)")
97
>>> reading("CCOC(=O)/C(C#N)=C/c1coc2cc(C)cc(C)c2c1=O")
97

====

assay: NCI Yeast Anticancer Drug Screen. Data for the mec2-1 strain (AID 157); conditions: S. cerevisiae mec2-1 strain, at 5.0 µM (retest, dose inferred, filed as 0.5), stronger effect = higher value
Compounds without any hit were thinned out: in the full panel of roughly 79,000, 15% have a hit.
value.kind: growth inhibition (%)

>>> reading("Cc1ccc(S(=O)(=O)NNc2nc(N3CCOCC3)nc(N3CCOCC3)n2)cc1")
2
>>> reading("c1ccc([P+](c2ccccc2)(c2ccccc2)C2c3ccccc3-c3ccccc32)cc1")
55
>>> reading("O=C1c2ccccc2SCC12OC2c1ccc(Cl)cc1 (configuration not stated)")
4
>>> reading("Cc1ccc(O)c(N=Nc2ccc(Cl)cc2)c1")
4
>>> reading("Cc1c(N=Nc2cccc(F)c2)c(-c2ccccc2)nn1C(N)=S")
1
>>> reading("Oc1[nH]c2ccccc2c1N=NC(=S)N1CCCCCC1")
-5
>>> reading("CC(=O)c1c2c(cc3c1CC1(Cc4ccccc4C1=O)C3)CCC2 (configuration not stated)")
-27
>>> reading("COc1ccc(Oc2cc3c[n+](C)ccc3cc2OC)cc1")
-3
>>> reading("O=[N+]([O-])c1ccc(O)c(C=Nc2ccccc2)c1")
-50
>>> reading("CN(C)/N=C\\C1CC=CCC1 (configuration not stated)")
-46
>>> reading("CCOC(=O)CC(O)(CCc1ccccc1)c1ccccc1 (configuration not stated)")
1
>>> reading("CCCCC(CC)(COC(C)=O)COC(C)=O")
1
